Exercise: state measured response vs control in vivo at 3 mg/kg for each of the molecules provided.
Tested on: male C57BL/6N mouse
Assay: Effect on glucose tolerance of normal mouse (oral glucose loading)
Assay type: in vivo
Conditions: 2 h, 3 mg/kg oral, 30 min before glucose 2 g/kg, AUC0-120, 0.5% MC = 100%, NVP DPP728 10 mg/kg = 0%, lower = better, read-out: Improvement degree of glucose tolerance
Description: Effect on Glucose Tolerance of Normal Mouse male C57BL/6N mouse (purchased from CHARLES RIVER JAPAN, INC.) […] Area under the curve of blood glucose level-time (AUC0-120; Area Under the Curve) from the time of administration of glucose to 120 minutes after administration was calculated for respective administration groups, i.e., 0.5% MC solution, NVP DPP728, and the test compounds. […]
Where a name gives a salt, the structure may show the parent alone.
Give bare numbers, in %.

Below are worked cases with known answers.
In [3]: df
Out[3]:
                                   molecule  result
0  C=Cc1ccccc1-n1c(N2CCNCC2)nc2c1c(=O)[nH]c(=O)n2C [Example 174]    -9.1
1  CC#CCn1c(N2CCNCC2)nc2c1c(=O)n(C)c(=O)n2CC(=O)c1ccccc1 [Example 256]     2.4
2  CC#CCn1c(N2CCNCC2)nc2c1c(=O)n(CCc1ccccc1)c(=O)n2CC(=O)OCC [Example 326, hydrochloride]   -30.6
3  Cn1c(=O)n(CCc2ccccc2)c(=O)c2c1nc(N1CCCNCC1)n2Cc1ccccc1 [Control compound 1, reference compound]    49.2
4  COc1ccccc1-n1c(N2CCNCC2)nc2c1c(=O)n(CC#N)c(=O)n2C [Example 166, trifluoroacetate]    16.1
5  CC#CCn1c(N2CCNCC2)nc2c1c(=O)n(C)c(=O)n2CCC [Example 243, trifluoroacetate]     8.4

Below: the item to evaluate.
QUERY: Given CC#CCn1c(N2CCNCC2)nc2c1c(=O)n(C)c(=O)n2Cc1ccccc1 [Example 218, trifluoroacetate] , respond with its response vs control in vivo at 3 mg/kg.
RESULT: 16.8
